test system: NCI-H23 lung; assay: NCI tumour cell line growth inhibition, 48 h
# TGI listing for each entry below

For orientation, consider the following solved cases.
compound=COc1cc(-c2cc(=O)c3ccccc3[nH]2)cc(OC)c1OC recorded_result="> 75 µM"
compound="COC1=C2CC(C)CC(OC)C(OC(=O)CCCN)C(C)/C=C(\\C)C(OC(N)=O)C(OC)/C=C\\C=C(/C)C(=O)NC(=CC1=O)C2=O (stereo not given)" recorded_result="14.4 µM"
compound=O=c1n(-c2ccccc2)c(=O)n2c(-c3ccccc3)c(-c3ccccc3)n12 recorded_result="> 100 µM"
compound=O=C(O)Cc1cccc2c(=O)c3cccc([N+](=O)[O-])c3[nH]c12 recorded_result="> 100 µM"
compound="CC1SC(c2ccc(Cl)cc2)N(CCc2cccs2)C1=O (stereo not given)" recorded_result="3.85 µM"
compound=CC(=O)CC(=O)CCC(=O)Nc1cccc(C(F)(F)F)c1 recorded_result="> 100 µM"
compound=O=C(c1ccco1)c1c(C(F)(F)F)n([O-])c2cc(F)c(F)cc2[n+]1=O recorded_result="1.86 µM"
compound="Cc1nnc(N/N=C(/C(=O)C(C#N)c2ccc(Cl)cc2)C(C#N)c2ccc(Cl)cc2)n1N (stereo not given)" recorded_result="35.3 µM"

QUERY: Name the recorded TGI for CSc1c(C#N)c(S)n(-c2ccc(Cl)cc2)c(=O)c1C#N .
RESULT: > 100 µM

QUERY: What TGI value was documented for this compound, CC(=O)Nc1ccc(S(=O)(=O)NN(C)S(=O)(=O)c2ccc(C)cc2)cc1 ?
RESULT: > 100 µM

###

Below, each entry is listed with its recorded TGI.
tested on: NCI-H226 lung; assay: NCI tumour cell line growth inhibition, 48 h

Study these solved cases before continuing.
compound="Cc1ccc(C2=Nc3ccccc3SC(c3cccc4c3OCO4)C2)cc1 (stereo not drawn)" test_target="NCI-H226 lung" recorded_result="37 µM"
compound="CN(C)CC(/C(Cc1ccccc1)=N\\NC(=S)NN)c1ccccc1 (stereo not drawn)" test_target="NCI-H226 lung" recorded_result="> 100 µM"

Please find the next compound below.
QUERY: Could you share what TGI was measured for COc1c(CC=C(C)C)c(O)c(C(CC(C)C)c2c(O)c(CC=C(C)C)c(O)c(C(C)=O)c2O)c(O)c1C(C)=O (stereo not drawn) , tested on NCI-H226 lung?
RESULT: 10.6 µM

###

system: HT29 colon; assay: NCI tumour cell line growth inhibition, 48 h; in the data active = GI50 below about 0.43 µM; inactive = the rest
Entry note: the call must match one of yes (active), no (inactive)

Example entries begin here.
input_smiles=CC1CCN(CCOc2ccc(CNc3ccc4nc(CCC5CCCCC5)[nH]c4c3)cc2)CC1 class_name=no
input_smiles=COc1cc(-c2ncn(/C=C\c3nnco3)n2)cc(C(F)(F)F)c1 class_name=yes
input_smiles=CSC1=Nc2c(c(C)c(-c3ccccc3)n2COC(CO)CO)C2=NC(=O)CN12 class_name=no
input_smiles=Cc1ccc(Cl)cc1-n1c(C)nc2c(cnn2-c2ccnc3c(C(F)(F)F)cccc23)c1=O class_name=no

Note: attention shifts to another entry.
QUERY: Could you check what this test reported for CC(=O)N(O)c1ccc(/C=C/c2ccccc2)cc1 ?
RESULT: no

###

Recorded measurements of TGI, one per entry
tested on: MDA-MB-231 breast; assay: NCI tumour cell line growth inhibition, 48 h

Answered cases to consult:
compound=Nc1c(Cl)cc(-c2nc3ccccc3s2)cc1Cl recorded_result="> 100 µM"
compound=Cc1cccc(CNc2ncnc3[nH]ncc23)c1 recorded_result="> 100 µM"
compound=CC1=NNC(=S)NCCCN2CCN(CCCNC(=S)NN=C(C)C=NNC(=S)NCCCN3CCN(CCCNC(=S)NN=C1)CC3)CC2 recorded_result="> 100 µM"
compound="COc1c(CC=C(C)C)c(O)c(C(CC(C)C)c2c(O)c(CC=C(C)C)c(O)c(C(C)=O)c2O)c(O)c1C(C)=O (stereo not given)" recorded_result="7.66 µM"

QUERY: Given Nc1nc2ccccc2c2c1S(=O)(=O)c1ccc(Cl)cc1C2=O , state its recorded TGI.
RESULT: > 50 µM

###

test system: HS 578T breast; experiment: NCI tumour cell line growth inhibition, 48 h
Catalogue of TGI readings, one per entry.

The following compounds have reported results that may help.
compound=CCn1ccnc1C(=O)/C=C/c1ccc(CC(=O)Nc2ccc(F)cc2)cc1 endpoint_label=TGI recorded_result="> 16.7 µM"
compound=Cn1c(C(=O)c2cccc3ccccc23)nc2ccccc21 endpoint_label=TGI recorded_result="> 100 µM"
compound=CCOC(=O)/C=C/C1(CCOC(C)=O)CCCCC1 endpoint_label=TGI recorded_result="> 10 µM"
compound="C#CCNC(=O)NC(CCCCNC(=O)OCc1ccccc1)C(=O)OCc1ccccc1 (stereo unspecified)" endpoint_label=TGI recorded_result="> 100 µM"
compound=COc1ccc(/C=N\Nc2nc(SCC(C)C)nc(-c3ccc(OC)cc3)c2C#N)cc1 endpoint_label=TGI recorded_result="30.9 µM"
compound=C/C(N)=N/OCc1nc(C)no1 endpoint_label=TGI recorded_result="> 100 µM"
compound=[Cl][Cu][Cl] endpoint_label=TGI recorded_result="> 10 µM"
compound=O=[N+]([O-])C(=C/c1cccc2ccccc12)/C(=C\c1cccc2ccccc12)[N+](=O)[O-] endpoint_label=TGI recorded_result="17.1 µM"
compound=CC(C)N(Cc1ccc(F)cc1)c1ccc(CO)c(Cl)c1 endpoint_label=TGI recorded_result="37.8 µM"
compound=COc1cc(C(=O)/C=C/c2c(C(F)(F)F)nc3ccccn23)cc(OC)c1OC endpoint_label=TGI recorded_result="54.6 µM"

The record that follows has no TGI shown yet.
QUERY: Entry under review: O=c1n(-c2ccccc2)c(=O)n2c(-c3ccccc3)c(-c3ccccc3)n12 . Reported TGI?
RESULT: > 100 µM

###

tested on: ACHN renal; test: NCI tumour cell line growth inhibition, 48 h
endpoint_label: TGI

molecule=COc1ccc(-c2[nH]c3ccccc3c2/C=C(\C#N)S(=O)(=O)c2ccccc2)cc1 recorded_result="> 100 µM"

QUERY: State the recorded TGI for this entry: CC(=O)N(CC(=O)C(=O)NNc1ccoc1)c1ccc(Cl)cc1
RESULT: > 100 µM

QUERY: Entry COc1ccc2nc3cc(Cl)ccc3c(N3CCN(c4ccnc(N5CCN(C)CC5)n4)CC3)c2c1 has what TGI?
RESULT: 3.33 µM

QUERY: // TGI lookup, key: O=c1ccc2ccccc2c2ccccc12
RESULT: 12.4 µM

###

test system: EKVX NSCLC; assay: NCI tumour cell line growth inhibition, 48 h
endpoint_label: GI50

Solved entries:
molecule=N#Cc1c(NC(=O)c2ccccc2F)sc2c1CCCC2 test_target="EKVX NSCLC" recorded_result="> 25 µM"
molecule=CN(C)CCCn1c2c(c3cc4c(cc3c1=O)OCO4)C(=O)c1ccccc1-2 test_target="EKVX NSCLC" recorded_result="5.55 µM"
molecule=O=C1/C(=C/c2ccccc2O)N=C(c2ccccc2)N1c1cc(C(F)(F)F)ccc1Cl test_target="EKVX NSCLC" recorded_result="38.3 µM"
molecule="CC(=O)OCC(CC[CH2][Sn]([Cl])([Cl])[c]1ccccc1)OC(C)=O (centres undefined)" test_target="EKVX NSCLC" recorded_result="44.4 µM"
molecule=O=S(=O)(O)c1ccc2cc3nn(-c4ccc(/C=C/c5ccc(-n6nc7cc8ccc(S(=O)(=O)O)cc8cc7n6)cc5S(=O)(=O)O)c(S(=O)(=O)O)c4)nc3cc2c1 test_target="EKVX NSCLC" recorded_result="95.2 µM"

QUERY: Which GI50 value belongs to CC1SC(c2ccc(Cl)cc2)N(CCc2cccs2)C1=O (centres undefined) ?
RESULT: 1.3 µM

QUERY: Would you kindly share the measured GI50 for O=S(=O)(NCCCNc1cc(-c2cn(-c3ccccc3)nc2-c2cccc(O)c2)ccn1)c1ccc(F)cc1 ?
RESULT: 3.92 µM

QUERY: // GI50 lookup, key: S=C(NCc1ccc2c(c1)OCO2)N1CCN(c2ncnc3c2oc2ccccc23)CC1
RESULT: 3.5 µM

QUERY: Which GI50 is listed for N#C/C(=C\c1cc2ccc(N3CCC3)cc2oc1=O)C(=O)N(CC(=O)O)CC(=O)O ?
RESULT: > 100 µM

###

tested on: RXF 393 renal; experiment: NCI tumour cell line growth inhibition, 48 h
endpoint_label: TGI

Below, 4 molecules whose answers are already recorded.
molecule="O=C(c1c(O)cc(O)cc1O)C1Cc2ccccc21 (stereo not drawn)" endpoint_label=TGI recorded_result="> 100 µM"
molecule="Cc1cn(C2CC(O)C(Cn3nncc3Cn3ncc(=O)[nH]c3=O)O2)c(=O)[nH]c1=O (stereo not drawn)" endpoint_label=TGI recorded_result="> 100 µM"
molecule=CCOC(=O)/C=C\C(C#N)(C#N)N=Cc1ccsc1 endpoint_label=TGI recorded_result="5.46 µM"
molecule="CN1CCCC1c1cccnc1.O=C(O)c1ccccc1O.O=C([O-])c1ccccc1[OH2+].O=C([O-])c1ccccc1[OH2+].[Mn+2] (stereo not drawn)" endpoint_label=TGI recorded_result="> 100 µM"

Now turn to the next molecule.
QUERY: Quick one: TGI of O=C(CO)C1CC2C=CC1C2 (stereo not drawn) ?
RESULT: > 100 µM
